protocol-summary: Pharmacokinetic test in SD rats
study-conditions: rat, plasma, po, 3 mg/kg
attribute-measured: half-life (h)
Field format: number, assumed h, no unit text.

In: // returns reported half-life for input CC(C)C[C@](C)(N)COc1ccc(-c2ccnc(C(F)F)c2)nc1C(F)F [BMS-986176, reference compound]
Out: 6.32

###

protocol-summary: Pharmacokinetic test in SD rats
study-conditions: rat, plasma, po, 3 mg/kg
attribute-measured: AUC(0-inf) (ng·h/mL)
Field format: number, assumed ng·h/mL, no unit text.

In: // returns reported AUC(0-inf) for input CC(C)C[C@](C)(N)COc1ccc(-c2ccnc(C(F)F)c2)nc1C(F)F [BMS-986176, reference compound]
Out: 1160
